Assayed system: p53 (Homo sapiens, UniProt P04637)
Construct: gene TP53
Sequence (P04637 whole entry): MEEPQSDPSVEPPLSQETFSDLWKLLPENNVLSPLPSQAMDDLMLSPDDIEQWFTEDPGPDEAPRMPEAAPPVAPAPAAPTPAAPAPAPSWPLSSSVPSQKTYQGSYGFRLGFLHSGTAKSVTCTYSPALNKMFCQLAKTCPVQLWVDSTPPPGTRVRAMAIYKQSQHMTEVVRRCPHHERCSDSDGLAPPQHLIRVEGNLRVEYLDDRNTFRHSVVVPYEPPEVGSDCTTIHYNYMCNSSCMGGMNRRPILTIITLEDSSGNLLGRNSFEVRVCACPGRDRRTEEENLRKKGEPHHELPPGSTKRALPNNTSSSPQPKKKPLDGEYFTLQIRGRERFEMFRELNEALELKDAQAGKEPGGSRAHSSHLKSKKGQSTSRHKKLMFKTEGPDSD
Protocol description: SPR with immobilized p53; also STD NMR, […]-13C NCO NMR titration, SAXS and AUC with NTD
Format: binding
Observable: Kd (µM)
Numbers only, in µM.

Notebook: O=C(O[C@@H]1Cc2c(O)cc(O)cc2O[C@@H]1c1cc(O)c(O)c(O)c1)c1cc(O)c(O)c(O)c1 [EGCG, Epigallocatechin gallate] , Kd read as 1.6

Data provenance is paper PMC7881117.
